- System: RXF 393 renal
- Assay overview: NCI tumour cell line growth inhibition, 48 h
Attribute measured: TGI

Solved cases below.
Molecule: COc1ccccc1CC(C)N (stereo not given)
TGI: > 100 µM
--
Molecule: CC(=O)NCCCCN(CCCNC(C)=O)C(=O)CNS(=O)(=O)c1cccc2c(N(C)C)cccc12
TGI: > 100 µM
--
Molecule: N#CC1=C2SCCN2C(=O)C(C#N)C12CCCCC2 (stereo not given)
TGI: > 100 µM
--
Molecule: O=C(Cc1ccccc1)NN1C(=O)/C(=C\c2cccc([N+](=O)[O-])c2)SC1=Nc1ccccc1
TGI: > 100 µM
--
Molecule: CC1C2CC(CC2(C)O)C1(C)C (stereo not given)
TGI: > 100 µM

Give measured TGI for O=C(O)CC(NC(=O)/C(=C/c1ccccc1)NC(=O)c1ccccc1)C(=O)O (stereo not given) (RXF 393 renal). > 100 µM

Specify the recorded TGI for CCOC(=O)CC1(Cc2ccc(OCc3ccccc3)cc2)C(=O)OC(c2ccccc2)N1C(=O)c1ccccc1 (stereo not given) , system: RXF 393 renal. > 100 µM

###

Measured TGI accompanies every entry in the list below.
- System: ACHN renal
- Assay overview: NCI tumour cell line growth inhibition, 48 h

Determine its reported TGI: Oc1c(Cl)cc(Cl)cc1/C=N/Nc1nnc(N/N=C/c2cc(Cl)cc(Cl)c2O)c2ccccc12 > 100 µM

Identify TGI associated with the molecule COC(=O)C1=C(C)N2CCSC2(C)C(C(=O)OC)C1c1cccc(Cl)c1 (centres undefined) > 100 µM

Indicate its recorded TGI; the molecule in question is COc1ccccc1C(=O)NO > 100 µM

Annotate the molecule C#CC(=O)Nc1cccc2c1cc(C)n2-c1nc2c(c(NCc3ccccc3)n1)CCCC2 with its measured TGI. 0.786 µM

# return recorded TGI for entry C#Cc1cccc(Nc2ncnc3ccc(OCCCCNCCS(C)(=O)=O)cc23)c1 > 25 µM

###

The entries below are paired with their reported TGI.
- Test system: COLO 205 colon
- Assay overview: NCI tumour cell line growth inhibition, 48 h

Tell us which TGI value is on record for COc1ccc(NC(C)=O)cc1N1C(=O)/C(=C\c2ccccc2)SC1c1cc(OC)c(OC)c(OC)c1 (stereo not given) > 100 µM

###

- Test system: SF-539 CNS
- Assay overview: NCI tumour cell line growth inhibition, 48 h
Please note: 1.0 applies when TGI is 4 µM or greater, and 0.0 applies otherwise.

Before answering, review these 5 worked examples.
Molecule: O=C(N/C(=C\c1cccc([N+](=O)[O-])c1)c1nc2ccccc2[nH]1)c1ccccc1
Target: SF-539 CNS
Classification: 1.0

Molecule: Cc1ccc(/C=C(\NC(=O)c2ccccc2)c2nc3ccccc3[nH]2)cc1
Target: SF-539 CNS
Classification: 1.0

Molecule: CN(C)CCCSc1ccccc1NC1=C(Cl)C(=O)C(Nc2ccccc2SCCCN(C)C)=C(Cl)C1=O
Target: SF-539 CNS
Classification: 0.0

Molecule: COc1cc2oc(-c3ccccc3)cc(=O)c2c(O)c1C
Target: SF-539 CNS
Classification: 1.0

Molecule: O=C(Cc1ccccc1)NN1C(=O)/C(=C\c2cccc([N+](=O)[O-])c2)SC1=Nc1ccccc1
Target: SF-539 CNS
Classification: 1.0

Given CN(C)CCC(CCN(C)C)=NO , state whether its TGI is at least 4 µM. 1.0

# bool: TGI of NS(=O)(=O)c1ccc(Nc2c3ccccc3nc3c(C(=O)N4CCN(CCO)CC4)cccc23)cc1 >= 4 µM 1.0

Determine whether this molecule has TGI no lower than 4 µM: C=CC(=O)N1C[C@@H]2CCOc3c(Cl)c(-c4c(O)cccc4F)c(F)c4ncnc(c34)N2C[C@H]1C 1.0

Test whether the molecule Cc1ccc2cccc(OC(=O)Nc3cccc(C(F)(F)F)c3)c2n1 records TGI of 4 µM or higher. 1.0

Is TGI at least 4 µM? Consider COc1cc(C2OC(N)=C(C#N)C3=C2C(C)CCC3)cc(OC)c1OC (configuration not stated) 1.0

###

Some molecules, each annotated with its measured TGI.
- System: SN12C renal
- Assay overview: NCI tumour cell line growth inhibition, 48 h
Give the quantity in µM, number only.

Recorded TGI, per entry:
Molecule: CC(C)(C)c1cc(/C=N/NC(=O)c2ccccc2NC(=O)c2cccs2)c(O)c(C(C)(C)C)c1
Attribute measured: TGI
Readout units: µM
Reported result: 62.8
//
Molecule: CC(=O)CC/C=C(\C)[C@H](O)[C@H](C)C(=O)O[C@H]1C[C@H](C)C=C2C=C[C@@]3(C)O[C@@H](O)CC(=O)[C@]3(C)[C@H]21
Attribute measured: TGI
Readout units: µM
Reported result: 2.43
//
Molecule: C/C=C(/C)C(=O)O[C@H]1[C@H]2[C@@H]([C@@H](OC(C)=O)[C@H](C)C(=O)[C@@]34C[C@@H](C)C(=O)[C@]3(/C=C(\C)[C@H]1OC(C)=O)O4)C2(C)C
Attribute measured: TGI
Readout units: µM
Reported result: 5.33
//
Molecule: CCOC(=O)C1=C(C)NC2=C(C(=O)N(c3ccccc3)C2c2ccccc2)C1c1ccccc1 (stereo not given)
Attribute measured: TGI
Readout units: µM
Reported result: 35.8
//
Molecule: CCCCN1C(=O)c2c(Br)sc(Br)c2C1=O
Attribute measured: TGI
Readout units: µM
Reported result: 95.8
//
Molecule: COc1ccc2c(c1)-c1c(c3cc(OC)ccc3n1CCCN(C)C)CC2
Attribute measured: TGI
Readout units: µM
Reported result: 28.5
//
Molecule: O=c1oc2ccccc2c(O)c1C(c1cnc2ccccc2c1)c1c(O)c2ccccc2oc1=O
Attribute measured: TGI
Readout units: µM
Reported result: 76.6
//
Molecule: CCC/C(Cl)=N/OC(=O)Nc1cc(C(F)(F)F)ccc1OC
Attribute measured: TGI
Readout units: µM
Reported result: 27.4
//
Molecule: CC(C)CCCC(C)[C@H]1CC[C@H]2n3c(nc4ccccc43)CCC[C@]12C (stereo not given in full)
Attribute measured: TGI
Readout units: µM
Reported result: 31.1
//
Molecule: CC[C@]12C=CCN3CCC4(c5cc([C@@]6(C(=O)OC)CC7CN(CCc8c6[nH]c6ccccc86)C[C@@H]6CCCC[C@H]76)c(OC)cc5N(C)C4[C@](O)(C(=O)OC)C1OC(C)=O)[C@@H]32 (stereo not given in full)
Attribute measured: TGI
Readout units: µM
Reported result: 18.3

Quote SN12C renal TGI for entry CC(C)(c1ccccc1)c1cc(O)c(C(C)(C)c2ccccc2)cc1O . 11.5

Jot down TGI (SN12C renal) of CC(=O)c1cc2c(s1)C(=O)c1sccc1C2=O . 0.0294

Give the observed TGI of Clc1cc(Cl)c2cc3cccc[n+]3cc2c1Cl for SN12C renal. 39.5

Answer with TGI of Oc1[nH]c(=S)[nH]c1/C=C1/C(c2ccccc2)=Nc2ccccc21 measured for SN12C renal. 38.7

State TGI (SN12C renal) of CSc1ccc2c(cc1=O)[C@@H](NC(=O)c1ccc(Cl)cc1)CCc1cc(O)c(O)c(O)c1-2 . 75.8

Jot down TGI (SN12C renal) of CC(C)(Oc1ccc(Cl)cc1)C(=O)N(C(=O)N1CCCCC1)c1ccccc1 . 47

Retrieve TGI on SN12C renal; query C=CC(=O)N1C[C@@H]2CCOc3c(Cl)c(-c4c(O)cccc4F)c(F)c4ncnc(c34)N2C[C@H]1C 31.3

###

The molecules listed here are annotated with their TGI.
- Tested on: OVCAR-3 ovarian
- Assay overview: NCI tumour cell line growth inhibition, 48 h
Just the number in µM, nothing appended.

Consider the reported TGI for these molecules:
Molecule: C=C1C(=O)O[C@@H]2/C=C(\C)CC/C=C(\C)CC[C@@]12O
Target: OVCAR-3 ovarian
TGI (µM): 6.43
--
Molecule: COc1cc(N2C(=O)[C@H](c3ccccc3)C2c2ccc(SC)cc2)cc(OC)c1OC (some centres undefined)
Target: OVCAR-3 ovarian
TGI (µM): 0.0667
--
Molecule: COC(=O)c1ccc(/C=C(\c2ccc([N+](=O)[O-])o2)S(=O)(=O)c2ccc(NC(C)=O)cc2)o1
Target: OVCAR-3 ovarian
TGI (µM): 19.7
--
Molecule: CN(C)C=Nc1c2ccccc2nc2ccccc12
Target: OVCAR-3 ovarian
TGI (µM): 13.4

Specify measured TGI for CC(C)CCCC(C)[C@H]1CC[C@H]2n3c(nc4ccccc43)CCC[C@]12C (some centres undefined) . 39

For the molecule CSc1ccc2c(cc1=O)[C@@H](NC(=O)c1ccc(Cl)cc1)CCc1cc(O)c(O)c(O)c1-2 , report TGI. 56.5

Tell me TGI reported for O=C1C=CC(=C(c2ccccc2)c2ccc(O)cc2)C=C1 32.5

Please look at this molecule and report its TGI: Cc1ccc(C=C2C(Cl)=C(Cl)C(Cl)=C2Cl)cc1 1.06

Answer with the recorded TGI for the molecule listed here: C/C=C(/C)C(=O)O[C@H]1[C@H]2[C@@H]([C@@H](OC(C)=O)[C@H](C)C(=O)[C@@]34C[C@@H](C)C(=O)[C@]3(/C=C(\C)[C@H]1OC(C)=O)O4)C2(C)C 7.01

Look up TGI of CN(C)CCNC(=O)c1cc(Cl)cc2cc3ccccc3nc12 and report it. 16

Respond only with TGI recorded for CC(=O)c1cc2c(s1)C(=O)c1sccc1C2=O 0.0382
